- measurement protocol: Half life in mouse
- Format: ADME, organism-based
- run parameters: in vivo
measurement label: half-life (h)
Give the value in h but do not write h after it.

// query Recorded half-life for O=C(CCc1ccc2cc(O)ccc2c1)Nc1ccccc1C(=O)O , please?
// result 3.2

* * *

- measurement protocol: Oral bioavailability in mouse
- Type: ADME, organism-based
- run parameters: in vivo
measurement label: bioavailability (%)
Give the value in % but do not write % after it.

// query Recorded bioavailability for O=C(CCc1ccc2cc(O)ccc2c1)Nc1ccccc1C(=O)O , please?
// result 55

* * *

- measurement protocol: Plasma clearance in mouse
- Type: ADME, organism-based
measurement label: clearance (mL/min/kg)
Give the value in mL/min/kg but do not write mL/min/kg after it.

// query Recorded clearance for O=C(CCc1ccc2cc(O)ccc2c1)Nc1ccccc1C(=O)O , please?
// result 6.2

Cited source for all entries: ChEMBL document CHEMBL1144179
